Assay: Conversion of prodrugs to compound 1 in mouse plasma
Assay type: in vitro ADME
Conditions: mouse plasma (Na-Heparin treated), 37° C., 0.5 hr
Structures can show the parent of a compound that is named as a salt.
Recorded measurements of Prodrug loss at 0.5 hr, one per entry

Some solved entries appear below for comparison.
Data request, read-out Prodrug loss at 0.5 hr, for "COCCOCCOCC(=O)NCCCC[C@H](NC(=O)COCCOCCOC)C(=O)N(C)CCCC(=O)ONC(=O)Cc1ccc(CCCCc2ccccc2)cc1"
100%

Data request, read-out Prodrug loss at 0.5 hr, for "NCC1(C(=O)ONC(=O)Cc2ccc(CCCCc3ccccc3)cc2)CC1"
62.6%

Data request, read-out Prodrug loss at 0.5 hr, for NCCNCC(=O)NCCC(=O)ONC(=O)Cc1ccc(CCCCc2ccccc2)cc1 [Compound 135, dihydrochloride]
100%

Data request, read-out Prodrug loss at 0.5 hr, for "COCCOCC(=O)NCCCC[C@H](NC(=O)COCCOC)C(=O)NCCC(=O)ONC(=O)Cc1ccc(CCCCc2ccccc2)cc1"
100%

Data request, read-out Prodrug loss at 0.5 hr, for "Cl.O=C(Cc1ccc(CCCCc2ccccc2)cc1)NOC(=O)CCC1CCNCC1"
100%

Data request, read-out Prodrug loss at 0.5 hr, for "COCCOCCOCCOCCOCCOCC(=O)N1CCC(CCC(=O)ONC(=O)Cc2ccc(CCCCc3ccccc3)cc2)CC1"
98%

Shifting focus to the molecule that follows.
Data request, read-out Prodrug loss at 0.5 hr, for "COCCOCC(=O)NCCCC[C@H](NC(=O)COCCOC)C(=O)NCCCC(=O)ONC(=O)Cc1ccc(CCCCc2ccccc2)cc1"
100%

----------
Assay: Saline solubility at 1.00 mg/mL and 0.50 mg/mL (with pH by indicator paper)
Assay type: physicochemical
Conditions: saline or isotonic, thermodynamic from solid, 0.50 mg/mL as hydroxamate 1, shaken 1 hour, centrifuged, soluble = no precipitate formed, read-out: Soluble at 0.5 mg/mL of MGCD290 (Y/N)
reported endpoint: solubility at 1 h

Data request, read-out solubility at 1 h, for "COCCOCCOCCOCCOCC(=O)N1CCC(CCC(=O)ONC(=O)Cc2ccc(CCCCc3ccccc3)cc2)CC1"
< 500 µg/mL

Shifting focus to the compound that follows.
Data request, read-out solubility at 1 h, for "COCCOCCOCCOCCOCCOCC(=O)NCCC(=O)ONC(=O)Cc1ccc(CCCCc2ccccc2)cc1"
< 500 µg/mL

----------
Recorded measurements of Prodrug loss at 0.5 hr, one per entry
Experiment: Conversion of prodrugs to compound 1 in human plasma
Assay type: in vitro ADME
Settings: human plasma (Na-Heparin treated), 37° C., 0.5 hr
Procedure: Step 1. Sample preparation. A quantity of blank human plasma (Na-Heparin treated) was incubated at 37° C. for 30 minutes. An amount of the compound sample was precisely weighed to correspond to around 5.00 mg of the hydroxamate of compound 1, taking into account the mass of the leaving group and the salt factor if applicable. The sample was placed in a 16×125 mm glass screw cap tube. […] Step 3. […] A quantity of MeCN/H2O 50/50 v/v was added so that the final concentration of hydroxamate 1 was 1.00 mg/mL. […]
Respond with the bare value in %.

Some solved entries appear below for comparison.
Data request, read-out Prodrug loss at 0.5 hr, for "COCCOCCOCC(=O)NCCCC[C@H](NC(=O)COCCOCCOC)C(=O)NCCCC(=O)ONC(=O)Cc1ccc(CCCCc2ccccc2)cc1"
22.7

Data request, read-out Prodrug loss at 0.5 hr, for "COCCOCCOCCOCCOCCOCC(=O)N1CCC(CCCC(=O)ONC(=O)Cc2ccc(CCCCc3ccccc3)cc2)CC1"
66.6

Data request, read-out Prodrug loss at 0.5 hr, for "Cl.O=C(Cc1ccc(CCCCc2ccccc2)cc1)NOC(=O)CCC1CCNCC1"
85.5

---
Data request, read-out Prodrug loss at 0.5 hr, for "NCC1(C(=O)ONC(=O)Cc2ccc(CCCCc3ccccc3)cc2)CC1"
50.9

----------
Assay: Saline solubility at 1.00 mg/mL and 0.50 mg/mL (with pH by indicator paper)
Type: physicochemical
Conditions: saline or isotonic, thermodynamic from solid, 1.00 mg/mL as hydroxamate 1, shaken 1 hour, centrifuged, soluble = no precipitate formed, read-out: Soluble at 1.00 mg/mL of MGCD290 (Y/N)
Procedure: Assays were performed to determine the saline solubility at 1.00 and 0.50 mg/ml and the stability of certain of the prodrug compounds of Examples 1-111. The following procedures were used. Step 1. Sample preparation. […] The pH was measured with pH indicator paper. […] The vial was shaken on a Vortex apparatus, injected into the HPLC instrument (UV detection, zero time point) and the retention time and purity of the sample compound were determined. […]
Structures can show the parent of a compound that is named as a salt.
reported endpoint: solubility at 1 h

Some solved entries appear below for comparison.
Data request, read-out solubility at 1 h, for COCCC(=O)NCCCC[C@H](NC(=O)CCOC)C(=O)NCCC(=O)ONC(=O)Cc1ccc(CCCCc2ccccc2)cc1 [Compound 148]
< 1000 µg/mL

Data request, read-out solubility at 1 h, for NCCCC[C@H](N)C(=O)NCCC(=O)ONC(=O)Cc1ccc(CCCCc2ccccc2)cc1 [Compound 14, di-hydrochloride]
> 1000 µg/mL

Data request, read-out solubility at 1 h, for O=C(Cc1ccc(CCCCc2ccccc2)cc1)NOC(=O)CN1C(=O)OC[C@@H]1c1ccccc1 [Compound 52A]
< 1000 µg/mL

Data request, read-out solubility at 1 h, for COCCOCCOCCOCCOCC(=O)N1CCN(C(=O)ONC(=O)Cc2ccc(CCCCc3ccccc3)cc2)CC1 [Compound 81]
> 1000 µg/mL

Data request, read-out solubility at 1 h, for COCCOCCOCC(=O)N1CCC(C(=O)ONC(=O)Cc2ccc(CCCCc3ccccc3)cc2)CC1 [Compound 119]
< 1000 µg/mL

Data request, read-out solubility at 1 h, for Cl.O=C(Cc1ccc(CCCCc2ccccc2)cc1)NOC(=O)CCC1CCNCC1 [Compound 110]
> 1000 µg/mL

Shifting focus to the compound that follows.
Data request, read-out solubility at 1 h, for COCCOCCOCC(=O)N1CCN(C(=O)CCC(=O)ONC(=O)Cc2ccc(CCCCc3ccccc3)cc2)CC1 [Compound 124]
> 1000 µg/mL

----------
Experiment: Conversion of prodrugs to compound 1 in human plasma
Type: in vitro ADME
Conditions: human plasma (Na-Heparin treated), 37° C., 1 hr
Where a name gives a salt, the structure may show the parent alone.
reported endpoint: Prodrug loss at 1 hr (%)
Respond with the bare value in %.

Data request, read-out Prodrug loss at 1 hr, for "COCCOCCOCC(=O)NCCCC[C@H](NC(=O)COCCOCCOC)C(=O)NCCCC(=O)ONC(=O)Cc1ccc(CCCCc2ccccc2)cc1"
89.1

Data request, read-out Prodrug loss at 1 hr, for "COCCOCCOCC(=O)NCCCC[C@H](NC(=O)COCCOCCOC)C(=O)NCCC(=O)ONC(=O)Cc1ccc(CCCCc2ccccc2)cc1"
100.0

Data request, read-out Prodrug loss at 1 hr, for NCCNCC(=O)NCCC(=O)ONC(=O)Cc1ccc(CCCCc2ccccc2)cc1 [Compound 135, dihydrochloride]
99.8

Shifting focus to the compound that follows.
Data request, read-out Prodrug loss at 1 hr, for NCCCC[C@H](N)C(=O)NCCC(=O)ONC(=O)Cc1ccc(CCCCc2ccccc2)cc1 [Compound 14, di-hydrochloride]
100.0

----------
Assay: Saline solubility at 10.00 mg/mL, 5.00 mg/mL and 2.50 mg/mL (with pH by pH meter)
Assay type: physicochemical
Conditions: saline or isotonic, thermodynamic from solid, concentration expressed as equivalent of Cpd 1, highest tested concentration soluble, read-out: Highest prodrug solubility in saline (equivalent of Cpd 1)
reported endpoint: solubility at 1 h (µg/mL)
Respond with the bare value in µg/mL.

Some solved entries appear below for comparison.
Data request, read-out solubility at 1 h, for NCC1(C(=O)ONC(=O)Cc2ccc(CCCCc3ccccc3)cc2)CC1 [Compound 54]
2500

Data request, read-out solubility at 1 h, for Cl.O=C(Cc1ccc(CCCCc2ccccc2)cc1)NOC(=O)CCC1CCNCC1 [Compound 110]
10000

---
Data request, read-out solubility at 1 h, for COCCOCC(=O)NCCCC[C@H](NC(=O)COCCOC)C(=O)NCCCC(=O)ONC(=O)Cc1ccc(CCCCc2ccccc2)cc1 [Compound 100]
1000

Data request, read-out solubility at 1 h, for COCCOCCOCCOCCOCCOCC(=O)N1CCC(CCCC(=O)ONC(=O)Cc2ccc(CCCCc3ccccc3)cc2)CC1 [Compound 122]
10000

----------
Assay: Conversion of prodrugs to compound 1 in mouse plasma
Type: in vitro ADME
Conditions: mouse plasma (Na-Heparin treated), equivalent to 1.00 mg/mL of compound 1; * = Plasma quickly became cloudy
Where a name gives a salt, the structure may show the parent alone.
reported endpoint: Prodrug solubility in plasma

Data request, read-out Prodrug solubility in plasma, for "COCCOCCOCCOCCOCCOCC(=O)N1CCC(CCCC(=O)ONC(=O)Cc2ccc(CCCCc3ccccc3)cc2)CC1"
Yes**

Data request, read-out Prodrug solubility in plasma, for "Cl.O=C(Cc1ccc(CCCCc2ccccc2)cc1)NOC(=O)CCC1CCNCC1"
Yes*

Data request, read-out Prodrug solubility in plasma, for "COCCOCCOCCOCCOCCOCC(=O)N1CCC(C(=O)ONC(=O)Cc2ccc(CCCCc3ccccc3)cc2)CC1"
Yes

Data request, read-out Prodrug solubility in plasma, for NCCNCC(=O)NCCC(=O)ONC(=O)Cc1ccc(CCCCc2ccccc2)cc1 [Compound 135, dihydrochloride]
Yes*

Data request, read-out Prodrug solubility in plasma, for "COCCOCCOCCOCCOCCOCC(=O)N1CCC(CCC(=O)ONC(=O)Cc2ccc(CCCCc3ccccc3)cc2)CC1"
Yes*

Data request, read-out Prodrug solubility in plasma, for NCCCC[C@H](N)C(=O)NCCC(=O)ONC(=O)Cc1ccc(CCCCc2ccccc2)cc1 [Compound 14, di-hydrochloride]
Yes*

Data request, read-out Prodrug solubility in plasma, for "COCCOCC(=O)NCCCC[C@H](NC(=O)COCCOC)C(=O)NCCC(=O)ONC(=O)Cc1ccc(CCCCc2ccccc2)cc1"
Yes*

Data request, read-out Prodrug solubility in plasma, for "COCCOCCOCC(=O)NCCCC[C@H](NC(=O)COCCOCCOC)C(=O)N(C)CCCC(=O)ONC(=O)Cc1ccc(CCCCc2ccccc2)cc1"
Yes

Data request, read-out Prodrug solubility in plasma, for "NCC1(C(=O)ONC(=O)Cc2ccc(CCCCc3ccccc3)cc2)CC1"
Yes

Data request, read-out Prodrug solubility in plasma, for "COCCOCCOCC(=O)NCCCC[C@H](NC(=O)COCCOCCOC)C(=O)NCCCC(=O)ONC(=O)Cc1ccc(CCCCc2ccccc2)cc1"
Yes*

---
Data request, read-out Prodrug solubility in plasma, for "COCCOCCOCC(=O)NCCCC[C@H](NC(=O)COCCOCCOC)C(=O)NCCC(=O)ONC(=O)Cc1ccc(CCCCc2ccccc2)cc1"
Yes*

Data request, read-out Prodrug solubility in plasma, for "COCCOCC(=O)NCCCC[C@H](NC(=O)COCCOC)C(=O)NCCCC(=O)ONC(=O)Cc1ccc(CCCCc2ccccc2)cc1"
Yes*

meta.source: patent US20150203517A1
